FYI, the data here is from PubChem BioAssay (NCI).

// TGI lookup, one value per entry
# Test system: LXFL 529 NSCLC
# test description: NCI tumour cell line growth inhibition, 48 h

{"compound": "Cc1c(Cl)ccc2c1NC(=O)C2(O)CC(=O)c1ccc(Cl)cc1Cl (centres undefined)", "TGI": "> 50 µM"}
{"compound": "CC(C)(C)c1nc2c(o1)C(=Nc1ccccc1)c1ccccc1C2=O", "TGI": "50.1 µM"}
{"compound": "Cc1cccc(C)c1NC(=O)CCC(=O)NNC(=O)c1cc(O)c2ccccc2c1", "TGI": "> 100 µM"}
{"compound": "COc1cc(OC)cc(N2CCC(c3c(N)nc(N)nc3Cl)CC2)c1", "TGI": "> 100 µM"}
{"compound": "COc1ccc(CC(=O)c2cc(OC)c(OC)cc2C)cc1OC", "TGI": "> 100 µM"}
{"compound": "COc1cc2c(cc1OC)C1c3ccccc3C(C#N)(C2)N(C(=O)c2ccccc2)C1O (centres undefined)", "TGI": "> 100 µM"}
{"compound": "CCCCCCCCCCCCCCCC[N+](C)(C)Cc1ccc(C[N+](C)(C)CCCCCCCCCCCCCCCC)cc1", "TGI": "> 100 µM"}
{"compound": "C=C1C(=O)O[C@@H]2C[C@]3(C)[C@@H](C[C@H]12)[C@](C)(O)CC[C@@H]3O", "TGI": "> 100 µM"}
{"compound": "CC(C)(C)C1CC[C@H]2c3c([nH]c4ccc(Br)cc34)[C@H]3C(=O)N(c4ccccc4)C(=O)[C@H]3[C@H]2C1 (some centres undefined)", "TGI": "31.3 µM"}
